Reference source for all entries: patent US20250032530A1

- study-system: recombinant PKC-ι/λ (Homo sapiens, UniProt P41743)
- Sequence (P41743 1-596): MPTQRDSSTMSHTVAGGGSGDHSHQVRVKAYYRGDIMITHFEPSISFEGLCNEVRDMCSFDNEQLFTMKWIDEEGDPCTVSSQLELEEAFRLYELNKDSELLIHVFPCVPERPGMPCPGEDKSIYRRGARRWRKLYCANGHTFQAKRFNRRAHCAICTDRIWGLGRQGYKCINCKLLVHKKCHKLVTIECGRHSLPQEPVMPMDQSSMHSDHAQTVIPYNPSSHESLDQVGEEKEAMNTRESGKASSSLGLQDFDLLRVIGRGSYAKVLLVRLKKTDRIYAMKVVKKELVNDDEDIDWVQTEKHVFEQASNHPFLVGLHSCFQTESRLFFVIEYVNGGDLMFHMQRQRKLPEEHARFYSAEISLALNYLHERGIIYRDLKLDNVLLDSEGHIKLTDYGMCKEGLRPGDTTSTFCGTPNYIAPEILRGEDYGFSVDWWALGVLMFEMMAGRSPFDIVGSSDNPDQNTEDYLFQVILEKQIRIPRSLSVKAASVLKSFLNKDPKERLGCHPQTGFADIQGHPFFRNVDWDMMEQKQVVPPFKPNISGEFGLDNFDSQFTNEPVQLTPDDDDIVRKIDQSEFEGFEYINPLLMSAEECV
- measurement-notes: Inhibition of recombinant PKC-ι/λ
- Type: biochemical
- condition-set: Example 2
quantity-measured: IC50

Measured IC50, NC(=O)c1ncn([C@@H]2C[C@H](COP(=O)(O)O)[C@@H](O)[C@H]2O)c1N : 1 to 10 nM
